Provenance of the data: patent US8178678B2

biological target: Rat Striatal Nicotinic Receptors ([^3H]NIC binding sites; α4β2) (Rattus norvegicus, UniProt P09483+P12390); construct: Whole brain, excluding cortex and cerebellum, was homogenized in 20 vol of ice-cold buffer; from tissue; host or cells: rat brain membranes (whole brain excluding cortex and cerebellum); assay: Inhibition of [^3H]NIC binding
Sequence (P09483 31-630): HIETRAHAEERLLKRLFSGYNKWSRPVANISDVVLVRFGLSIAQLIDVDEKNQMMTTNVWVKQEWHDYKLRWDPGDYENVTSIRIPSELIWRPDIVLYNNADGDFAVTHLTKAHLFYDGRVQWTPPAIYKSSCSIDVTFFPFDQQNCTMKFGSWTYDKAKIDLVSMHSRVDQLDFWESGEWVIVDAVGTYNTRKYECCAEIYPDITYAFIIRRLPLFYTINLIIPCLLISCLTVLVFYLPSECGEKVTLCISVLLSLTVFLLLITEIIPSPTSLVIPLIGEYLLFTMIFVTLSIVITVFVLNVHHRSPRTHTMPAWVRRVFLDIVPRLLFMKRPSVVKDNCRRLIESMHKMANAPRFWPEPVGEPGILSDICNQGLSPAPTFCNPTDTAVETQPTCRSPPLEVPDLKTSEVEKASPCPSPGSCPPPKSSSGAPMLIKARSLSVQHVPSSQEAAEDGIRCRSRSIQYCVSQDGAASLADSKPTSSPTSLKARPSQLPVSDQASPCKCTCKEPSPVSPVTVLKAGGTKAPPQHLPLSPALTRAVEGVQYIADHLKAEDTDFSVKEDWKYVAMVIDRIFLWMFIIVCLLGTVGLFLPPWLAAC
Sequence (P12390 25-500): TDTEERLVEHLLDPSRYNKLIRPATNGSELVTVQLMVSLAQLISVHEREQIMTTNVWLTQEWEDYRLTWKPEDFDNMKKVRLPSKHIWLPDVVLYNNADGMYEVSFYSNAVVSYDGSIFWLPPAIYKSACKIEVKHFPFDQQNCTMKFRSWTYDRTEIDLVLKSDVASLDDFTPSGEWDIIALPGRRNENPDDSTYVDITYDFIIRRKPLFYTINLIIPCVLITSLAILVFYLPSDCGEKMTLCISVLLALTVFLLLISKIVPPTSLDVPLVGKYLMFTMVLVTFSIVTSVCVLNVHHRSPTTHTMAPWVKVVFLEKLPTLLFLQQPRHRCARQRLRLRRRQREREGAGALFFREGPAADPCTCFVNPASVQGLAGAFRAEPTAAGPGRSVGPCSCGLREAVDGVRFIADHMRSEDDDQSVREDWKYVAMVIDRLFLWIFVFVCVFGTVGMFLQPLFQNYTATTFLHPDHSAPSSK
valueKind: Ki (µM)
One number for each entry, in µM.

Query: Bench note: what Ki did Cc1ccc[n+](CCCCC#CC#CCCCC[n+]2cccc(C)c2)c1 show?
Response: 6.36

----------
molecular target: Rat Striatal Nicotinic Receptors ([^3H]NIC binding sites; α4β2) (Rattus norvegicus, UniProt P09483+P12390); construct: Whole brain, excluding cortex and cerebellum, was homogenized in 20 vol of ice-cold buffer; from tissue; host or cells: rat brain membranes (whole brain excluding cortex and cerebellum); experiment: Inhibition of [^3H]NIC binding; settings: 1 h; 100 nM analog; 3 nM [^3H]NIC; nonspecific 10 μM cytisine; rat brain membranes
valueKind: inhibition at 0.1 µM (%)
Give bare numbers, in %.

Solved cases (6 shown):
compound: Cc1ccc[n+](CCCC#Cc2ccccc2C#CCCC[n+]2cccc(C)c2)c1 [Example 24]
measuredValue: 3.9
//
compound: CN1CCC[C@@H]1c1ccc[n+](CCCC#Cc2ccccc2C#CCCC[n+]2cccc([C@@H]3CCCN3C)c2)c1 [Example 31]
measuredValue: 72
//
compound: C(#Cc1ccccc1C#CCCC[n+]1cccc2ccccc21)CCC[n+]1cccc2ccccc21 [Example 29]
measuredValue: 0
//
compound: Cc1cc(C)c[n+](CCOCCOCCOCC[n+]2cc(C)cc(C)c2)c1 [Example 90]
measuredValue: 10
//
compound: Cc1cc[n+](CCCC#Cc2ccccc2C#CCCC[n+]2ccc(C)c(C)c2)cc1C [Example 27]
measuredValue: 4.2
//
compound: Cc1cc[n+](CCCC#Cc2ccccc2C#CCCC[n+]2ccc(C)cc2)cc1 [Example 25]
measuredValue: 2.5

The following compounds each have a reported value; give each one's inhibition at 0.1 µM.
1. CCc1ccc[n+](CCCCc2ccc(CCCC[n+]3cccc(CC)c3)cc2)c1 [Example 14]
2. Cc1cc[n+](CCCCCc2cccc(CCCCC[n+]3ccc(C)cc3C)c2)c(C)c1 [Example 65]

Response:
1. 2
2. 0.5

The following compounds each have a reported value; give each one's inhibition at 0.1 µM.
1. c1cc2c([n+](CCCc3ccc(-c4ccc(CCC[n+]5cccc6c5CCCC6)cc4)cc3)c1)CCCC2 [Example 75]
2. Cc1cc(C)c[n+](CCCC/C=C\C=C/CCCC[n+]2cc(C)cc(C)c2)c1 [Example 9]
3. c1cc(-c2ccc(CCC[n+]3ccc4c(c3)CCCC4)cc2)ccc1CCC[n+]1ccc2c(c1)CCCC2 [Example 76]
4. Cc1cc[n+](CCCC/C=C\C=C/CCCC[n+]2ccc(C)c(C)c2)cc1C [Example 8]
5. OCCCc1ccc[n+](CCCc2ccc(-c3ccc(CCC[n+]4cccc(CCCO)c4)cc3)cc2)c1 [Example 74]

Response:
1: 0.4; 2: 0; 3: 0; 4: 0; 5: 2

The following compounds each have a reported value; give each one's inhibition at 0.1 µM.
1. c1c[n+](CCOCCOCCOCC[n+]2ccc3c(c2)CCCC3)cc2c1CCCC2 [Example 85]
2. Cc1cc[n+](CCOCCOCCOCC[n+]2ccc(C)cc2C)c(C)c1 [Example 88]
3. Cc1cc[n+](CCCC#Cc2ccccc2C#CCCC[n+]2ccc(C)cc2C)c(C)c1 [Example 26]
4. Cc1cc[n+](CCOCCOCCOCC[n+]2ccc(C)c(C)c2)cc1C [Example 89]

Response:
1: 6; 2: 0; 3: 0; 4: 13
